test system: HOP-62; test: Growth inhibition of human HOP62 cells assessed as cell growth at 10 uM incubated for 48 hrs by sulforhodamine B assay relative to control; format: functional; settings: HOP-62, 48 h, read-out: Activity
experimentalEndpoint: growth at 10 µM (%)
All answers are understood in %, so give the number only.

# example entries with known answers
>>> print(df.to_string())
                             compoundsmiles  experimentalendpoint  assayvalue
0  CCOC(=O)c1c(C)oc2ncnc(Nc3ccc(OCc4ccc(Cl)cc4)cc3)c12       growth at 10 µM        97.7
1        Cc1oc2ncnc(Nc3cccc(F)c3)c2c1C(=O)O       growth at 10 µM        98.4
2    CCOC(=O)c1c(C)oc2ncnc(Nc3cccc(F)c3)c12       growth at 10 µM         101

Please give the measured growth at 10 µM for this molecule: "Cc1oc2ncnc(Nc3cccc(F)c3)c2c1C(=O)NCCO"
97.4

Please give the measured growth at 10 µM for this molecule: "CCOC(=O)c1c(C)oc2ncnc(Nc3ccc(F)cc3)c12"
101

Please give the measured growth at 10 µM for this molecule: "Cc1cccc(Nc2ncnc3oc(C)c(C(=O)NCCO)c23)c1"
98.2

Please give the measured growth at 10 µM for this molecule: "CCCNC(=O)c1c(C)oc2ncnc(Nc3cccc(Cl)c3)c12"
87.7

---

The entries below are paired with their reported growth at 10 µM.
system: OVCAR-4; test: Growth inhibition of human OVCAR4 cells assessed as cell growth at 10 uM incubated for 48 hrs by sulforhodamine B assay relative to control; format: functional; details: OVCAR-4, 48 h, read-out: Activity
All answers are understood in %, so give the number only.

# example entries with known answers
In [3]: df
Out[3]:
                             compoundsmiles  experimentalendpoint  assayvalue
0  CCOC(=O)c1c(C)oc2ncnc(Nc3ccc(OCc4ccc(Cl)cc4)cc3)c12       growth at 10 µM         104
1  CCCNC(=O)c1c(C)oc2ncnc(Nc3cccc(Cl)c3)c12       growth at 10 µM         101
2  CCOC(=O)c1c(C)oc2ncnc(Nc3ccc(F)c(Cl)c3)c12       growth at 10 µM         118

Please give the measured growth at 10 µM for this compound: "CCOC(=O)c1c(C)oc2ncnc(Nc3ccc(OCc4ccc(Cl)c(Cl)c4)cc3)c12"
121

Please give the measured growth at 10 µM for this compound: "CCOC(=O)c1c(C)oc2ncnc(Nc3ccc(F)cc3)c12"
99.1

Please give the measured growth at 10 µM for this compound: "Cc1oc2ncnc(Nc3cccc(F)c3)c2c1C(=O)NCCO"
108

Please give the measured growth at 10 µM for this compound: "Cc1oc2ncnc(Nc3cccc(Cl)c3)c2c1CO"
92.5

---

system: DU-145; experiment: Growth inhibition of human DU145 cells assessed as cell growth at 10 uM incubated for 48 hrs by sulforhodamine B assay relative to control; format: functional; settings: DU-145, 48 h, read-out: Activity
experimentalEndpoint: growth at 10 µM (%)
All answers are understood in %, so give the number only.

Please give the measured growth at 10 µM for this compound: "CCCNC(=O)c1c(C)oc2ncnc(Nc3cccc(Cl)c3)c12"
90

Please give the measured growth at 10 µM for this compound: "CCOC(=O)c1c(C)oc2ncnc(Nc3ccc(OCc4cccc(F)c4)cc3)c12"
94.9

Please give the measured growth at 10 µM for this compound: "CCOC(=O)c1c(C)oc2ncnc(Nc3cccc(F)c3)c12"
99

Please give the measured growth at 10 µM for this compound: "CCOC(=O)c1c(C)oc2ncnc(Nc3ccc(OCc4ccc(Cl)c(Cl)c4)cc3)c12"
108

Please give the measured growth at 10 µM for this compound: "CCOC(=O)c1c(C)oc2ncnc(Nc3ccc(F)c(Cl)c3)c12"
103

Please give the measured growth at 10 µM for this compound: "Cc1cccc(Nc2ncnc3oc(C)c(C(=O)NCCN4CCOCC4)c23)c1"
99.4

Please give the measured growth at 10 µM for this compound: "Cc1oc2ncnc(Nc3ccccc3)c2c1C(=O)NCCO"
105

Please give the measured growth at 10 µM for this compound: "CCOC(=O)c1c(C)oc2ncnc(Nc3ccc(OCc4ccc(Cl)cc4)cc3)c12"
106

Please give the measured growth at 10 µM for this compound: "Cc1oc2ncnc(Nc3cccc(F)c3)c2c1C(=O)NCCO"
105
